species on record: Rattus norvegicus; assay: DrugMatrix - Regimen: Daily Repeat; format: toxicity, organism-based, Sprague-Dawley; design: regimen Daily Repeat, gender Male, age 6-8 weeks; conditions: in vivo, po, 0 mg/kg, 72 h, tissue Plasma, route oral GAVAGE, dose level Control, time 3 day, vehicle 100 % WATER
REPORTED_METRIC: ASPARTATE AMINOTRANSFERASE (u/L)
Just the number in u/L, nothing appended.

Given item `CC[C@H]1OC(=O)[C@H](C)[C@@H](O[C@H]2C[C@@](C)(OC)[C@@H](O)[C@H](C)O2)[C@H](C)[C@@H](O[C@@H]2O[C@H](C)C[C@H](N(C)C)[C@H]2O)[C@](C)(O)C[C@@H](C)CN(C)[C@H](C)[C@@H](O)[C@]1(C)O` , the value recorded as its ASPARTATE AMINOTRANSFERASE is 81

Entry `CC(C)(C)NC[C@H](O)COc1nsnc1N1CCOCC1` — recorded ASPARTATE AMINOTRANSFERASE = 87.5

In plain terms, O=P1(N(CCCl)CCCl)NCCCO1 (stereo unspecified) [CYCLOPHOSPHAMIDE ANHYDROUS] has a documented ASPARTATE AMINOTRANSFERASE of 84

Form field ASPARTATE AMINOTRANSFERASE, entry `CCN[C@@H](C)Cc1cccc(C(F)(F)F)c1` : 66

Entry `CNS(=O)(=O)Cc1ccc2[nH]cc(CCN(C)C)c2c1` — recorded ASPARTATE AMINOTRANSFERASE = 81.83

The molecule listed as CCN(CC)CC#CCOC(=O)C(O)(c1ccccc1)C1CCCCC1 (stereo unspecified) shows ASPARTATE AMINOTRANSFERASE equal to 86.5

----------
organism: Rattus norvegicus; assay: DrugMatrix - Regimen: Daily Repeat; assay type: toxicity, organism-based, Sprague-Dawley; parameters: regimen Daily Repeat, gender Male, age 6-8 weeks; details: in vivo, po, 0 mg/kg, 72 h, tissue Blood, route oral GAVAGE, dose level Control, time 3 day, vehicle 100 % WATER
REPORTED_METRIC: MEAN CORPUSCULAR VOLUME (fL)
Use fL as the unit, but write only the number.

Solved entries:
>  <MOLECULE>
CC[C@H]1OC(=O)[C@H](C)[C@@H](O[C@H]2C[C@@](C)(OC)[C@@H](O)[C@H](C)O2)[C@H](C)[C@@H](O[C@@H]2O[C@H](C)C[C@H](N(C)C)[C@H]2O)[C@](C)(OC)C[C@@H](C)C(=O)[C@H](C)[C@@H](O)[C@]1(C)O

>  <REPORTED>
62.07

$$$$
>  <MOLECULE>
Nc1ccc(S(=O)(=O)Nc2nccs2)cc1

>  <REPORTED>
62.88

$$$$
>  <MOLECULE>
OCCO

>  <REPORTED>
61.8

$$$$
>  <MOLECULE>
CCN(CC)CC#CCOC(=O)C(O)(c1ccccc1)C1CCCCC1 (configuration not stated)

>  <REPORTED>
61.23

$$$$
>  <MOLECULE>
CC[C@H]1OC(=O)[C@H](C)[C@@H](O[C@H]2C[C@@](C)(OC)[C@@H](O)[C@H](C)O2)[C@H](C)[C@@H](O[C@@H]2O[C@H](C)C[C@H](N(C)C)[C@H]2O)[C@](C)(O)C[C@@H](C)CN(C)[C@H](C)[C@@H](O)[C@]1(C)O

>  <REPORTED>
65.23

$$$$
>  <MOLECULE>
Nc1ccc(S(=O)(=O)Nc2ncccn2)cc1

>  <REPORTED>
60.52

$$$$

Lab book: MEAN CORPUSCULAR VOLUME of `CNS(=O)(=O)Cc1ccc2[nH]cc(CCN(C)C)c2c1` noted as 63.52
